All figures here come from the RNAGym collection of RNA variant scans (doi:10.1021/acssynbio.7b00057).

B1: Pistol ribozyme (parent)
chain: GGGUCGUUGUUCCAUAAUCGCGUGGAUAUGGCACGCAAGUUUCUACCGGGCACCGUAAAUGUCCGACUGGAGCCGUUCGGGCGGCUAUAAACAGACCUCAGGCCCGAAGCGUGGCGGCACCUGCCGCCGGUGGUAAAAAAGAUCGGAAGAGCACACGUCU

Variants of: B1
Experiment: aptazyme ON/OFF ratio, guanine; higher = stronger switching; co-transcriptional cleavage with and without guanine
Outcome Measure: aptazyme ON/OFF ratio
Just the number, please.

Exercise: May I ask what aptazyme ON/OFF ratio has been recorded for U8G U10C U11A C13U ?
Key: 1.22

Exercise: Same lookup for U8A G9C U10A U11C C12U , please.
Key: 1.06

Exercise: Same lookup for U8G G9A U10A C12G , please.
Key: 1.18

Exercise: Same lookup for U8C U10A U11G C12A C13G , please.
Key: 1.26

Exercise: Same lookup for U7G U8G G9C U10A U11C C13U , please.
Key: 1.07

Exercise: Same lookup for U8C G9U U11C C13U , please.
Key: 1.01

Exercise: Same lookup for U7C G9A U11A C12U C13G , please.
Key: 1.09

Exercise: Same lookup for U7G U8C G9C U10G U11G C12G C13U , please.
Key: 1.09

Exercise: Same lookup for U7A U8A U11A C12G C13A , please.
Key: 1.17

Exercise: Same lookup for U7G U8G U10C U11A C12G , please.
Key: 1.21

Exercise: Same lookup for U7G G9C U10G U11A C12A , please.
Key: 1.18

Exercise: Same lookup for U7G U8C G9C C12G C13U , please.
Key: 1.09

Exercise: Same lookup for U7A U8C U10C U11G C12G C13G , please.
Key: 1.24

Exercise: Same lookup for U7G U8G U10G C12U C13U , please.
Key: 1.32

Exercise: Same lookup for U8C G9A U11G C12A , please.
Key: 1.06

Exercise: Same lookup for U7A U8A U10C C12G , please.
Key: 1.16

Exercise: Same lookup for U8A G9A C12A C13G , please.
Key: 1.1

Exercise: Same lookup for U7G U8A G9A U10A U11C C12A C13U , please.
Key: 1.14

Exercise: Same lookup for U7A G9U C12G C13G , please.
Key: 1.3

Exercise: Same lookup for U7G U8A G9U U10A U11G C13U , please.
Key: 1.09

Exercise: Same lookup for U8A G9A U10A U11C C12U C13G , please.
Key: 1.17

Exercise: Same lookup for U7A U8A U11A , please.
Key: 1.22

Exercise: Same lookup for U7C U8G G9A U10G U11G C12G C13G , please.
Key: 1.03

Exercise: Same lookup for U8G G9A U11G C12A C13A , please.
Key: 1.16

Exercise: Same lookup for U7A U8A G9C U10C U11A C12U , please.
Key: 1.07

Exercise: Same lookup for U7G U8A G9A U10A U11C C13U , please.
Key: 1.05

Exercise: Same lookup for U7C U10G C12U C13A , please.
Key: 1.25

Exercise: Same lookup for U7G U8G G9A U10G , please.
Key: 1.83

Exercise: Same lookup for U7G U8C C12U C13U , please.
Key: 1.07

Exercise: Same lookup for U8A G9A U11G C12G C13A , please.
Key: 1.23

Exercise: Same lookup for U7A U10G C12U C13A , please.
Key: 1.41

Exercise: Same lookup for U7G U8C G9C U10G C12U , please.
Key: 1.14

Exercise: Same lookup for U7C U8C U10C U11G C13G , please.
Key: 1.24

Exercise: Same lookup for G9U U11G C12U C13G , please.
Key: 1.43

Exercise: Same lookup for U8A G9U U10G U11A C12G , please.
Key: 1.28

Exercise: Same lookup for U7G G9A U11A C12A C13U , please.
Key: 1.15

Exercise: Same lookup for G9A U10C U11G C12U C13U , please.
Key: 1.4

Exercise: Same lookup for U7C U8G G9A U11G C12A C13A , please.
Key: 1.17

Exercise: Same lookup for U7G U8G G9A U10C U11C C12A C13G , please.
Key: 1.2

Exercise: Same lookup for U8C G9U U11C C12G C13G , please.
Key: 1.03

Exercise: Same lookup for U8C G9A U10A U11C C12G C13A , please.
Key: 1.21

Exercise: Same lookup for U7A U8A G9C U10C U11G C12A C13G , please.
Key: 1.03

Exercise: Same lookup for U7C U8C U10C , please.
Key: 1.26

Exercise: Same lookup for U7C G9C U10G U11A C12U C13G , please.
Key: 1.05

Exercise: Same lookup for U7C U8C G9U U10G C12U C13A , please.
Key: 1.1

Exercise: Same lookup for U7G U8G G9C U10C C12U C13A , please.
Key: 1.29
